Below, each of the compounds is paired with its reported IC50 value.
studySystem: SARS2 protease (Severe acute respiratory syndrome coronavirus 2, UniProt P0DTD1)
protocolNotes: SARS-CoV-2 protease inhibition assay (SARS2 FRET protease assay)
Assay type: biochemical
protocolConditions: SARS-CoV-2 protease 25 nM, FRET, peptide substrate 1.3 μM, 30 minutes at 30° C., compounds 20 μM to 1.0 nM; read-out: IC50
Give the number; nM is assumed, so skip it.

Known results for compounds:
CCCC[C@H](NC(=O)OC(c1ccccc1)C(C)(C)c1cccc(Cl)c1)C(=O)N[C@@H](CC1CCNC1=O)C(=O)C(N)=O (some centres unmarked) | 144
CC(C)C[C@H](NC(=O)OC1(Cc2ccccc2)CC1)C(=O)N[C@H](C=O)C[C@@H]1CCNC1=O | 331
CC(OC(=O)N[C@@H](CC1CCCCC1)C(=O)N[C@H](C=O)CCC(=O)N(C)CCc1ccccc1)c1cccc(Cl)c1 (some centres unmarked) | 11100
COc1cccc2[nH]c(C(=O)N[C@@H](CC3CCCCC3)C(=O)NC(C=O)CC3CC4(CCOCC4)NC3=O)cc12 (some centres unmarked) | 0.015
CC(C)C[C@H](NC(=O)OC(c1ccccc1)C(C)(C)c1cccc(Cl)c1)C(=O)N[C@@H](C[C@@H]1CCNC1=O)C(=O)C(=O)N1CCN(C)CC1 (some centres unmarked) | 6930
CC1(C)CC(CC(NC(=O)[C@H](CC2CCCCC2)NC(=O)OC(c2cccc(F)c2)C(C)(C)c2cccc(Cl)c2)C(=O)C(=O)NC2CC2)C(=O)N1 (some centres unmarked) | 2560
CS(=O)(=O)N1CCC2(CC1)CC(C[C@H](NC(=O)[C@H](CC1CCCCC1)NC(=O)OCc1cccc(Cl)c1)C(=O)C(=O)NC1CC1)C(=O)N2 (some centres unmarked) | 1840
CC(C)C[C@H](NC(=O)OC1CCN(C(=O)OC(C)(C)C)c2ccccc21)C(=O)N[C@H](C=O)C[C@@H]1CCNC1=O (some centres unmarked) | 100

IC50 reading for CCOP(=O)(OCC)C(O)C(CC1CC2(CCN(C(C)=O)CC2)NC1=O)NC(=O)[C@H](CC(C)C)NC(=O)c1cc2ccccc2[nH]1 (some centres unmarked) : 2600

IC50 reading for CC(=O)N1CCC2(CC1)CC(CC(C=O)NC(=O)[C@H](CC(C)C)NC(=O)OCc1cccc(Cl)c1)C(=O)N2 (some centres unmarked) : 100

IC50 reading for CC(C)(C)C(OC(=O)N[C@@H](CC1CCCCC1)C(=O)N[C@@H](C[C@@H]1CCNC1=O)C(=O)C(N)=O)c1ccccc1 (some centres unmarked) : 1800
